molecular target: ACKR2 (Homo sapiens, UniProt O00590); construct: expressed in transfected cells; host or cells: U87 cells (human glioblastoma); experiment: Figure S2a opioid peptide screen on chemokine receptors; assay type: cell-based; set-up: dose or concentration left out as unconfirmed; details: replicate 2, read-out: ACKR2 activity, ctrl+ = 100
Sequence (O00590 whole entry): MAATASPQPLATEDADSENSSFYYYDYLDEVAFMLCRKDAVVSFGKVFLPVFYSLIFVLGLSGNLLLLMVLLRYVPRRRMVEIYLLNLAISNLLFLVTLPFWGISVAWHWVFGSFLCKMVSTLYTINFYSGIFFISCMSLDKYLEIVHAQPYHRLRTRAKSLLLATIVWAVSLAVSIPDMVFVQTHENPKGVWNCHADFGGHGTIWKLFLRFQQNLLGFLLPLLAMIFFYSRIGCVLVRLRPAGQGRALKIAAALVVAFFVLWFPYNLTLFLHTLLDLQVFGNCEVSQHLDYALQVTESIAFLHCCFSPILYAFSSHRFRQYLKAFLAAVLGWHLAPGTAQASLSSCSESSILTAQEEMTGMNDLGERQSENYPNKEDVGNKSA
quantity measured: activation (%)
Give the value in % but do not write % after it.

Answered examples (2):
NC(=O)[C@H](Cc1ccccc1)NC(=O)[C@H](Cc1c[nH]c2ccccc12)NC(=O)[C@@H]1CCCN1C(=O)[C@@H](N)Cc1ccc(O)cc1 [Endomorphin-1] = 11.5
CC[C@H](C)[C@H](NC(=O)[C@H](CCCNC(=N)N)NC(=O)[C@H](CCCNC(=N)N)NC(=O)[C@H](CC(C)C)NC(=O)[C@H](Cc1ccccc1)NC(=O)CNC(=O)CNC(=O)[C@@H](N)Cc1ccc(O)cc1)C(=O)N[C@@H](CCCNC(=N)N)C(=O)N1CCC[C@H]1C(=O)N[C@@H](CCCCN)C(=O)N[C@@H](CC(C)C)C(=O)N[C@@H](CCCCN)C(=O)O = -39.6

Recorded activation for `CC(C)C[C@H](NC(=O)[C@H](Cc1ccccc1)NC(=O)CNC(=O)CNC(=O)[C@@H](N)Cc1ccc(O)cc1)C(=O)N[C@@H](CCCN=C(N)N)C(=O)N[C@@H](CCCN=C(N)N)C(=O)N[C@@H](CCC(N)=O)C(=O)N[C@@H](Cc1ccccc1)C(=O)N[C@@H](CCCCN)C(=O)N[C@H](C(=O)N[C@H](C(=O)N[C@H](C(=O)O)[C@@H](C)O)C(C)C)C(C)C` with ACKR2 (Homo sapiens, UniProt O00590), please?
-27.9

Origin of the recorded values: paper PMC7305236
